pKi for assorted molecules
biological target: Mcl-1 (Homo sapiens (Human)); assay: Fluorescence polarization competition assay (FPCA), Mcl-1 / FITC-Bak BH3 peptide; type: binding; details: FPCA; read-out: Mcl-1 Ki
Sequence (Q07820 172-327): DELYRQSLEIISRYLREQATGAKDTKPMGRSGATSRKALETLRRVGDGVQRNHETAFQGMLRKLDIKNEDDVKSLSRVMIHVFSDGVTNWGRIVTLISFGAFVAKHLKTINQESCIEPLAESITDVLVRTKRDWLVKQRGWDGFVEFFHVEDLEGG
Give only the number. pKi is defined as minus log10 of concentration in molar units.

See these solved cases before continuing.
[
  {
    "MOLECULE": "Cc1cc(Oc2ccc(S(=O)(=O)N(CC(C)C)c3ccc(O)c(C(=O)O)c3)cc2)cc(C)c1Cl [JY-5-304 18bd]",
    "OBSERVED_VALUE": 6.23
  },
  {
    "MOLECULE": "O=C(O)c1cc(S(=O)(=O)Nc2ccc(Br)cc2Br)c2ccccc2c1O",
    "OBSERVED_VALUE": 6.38
  },
  {
    "MOLECULE": "Cc1cc(Oc2ccc(N(Cc3ccccc3)S(=O)(=O)c3cc(C(=O)O)c(O)c4ccccc34)cc2)cc(C)c1Cl",
    "OBSERVED_VALUE": 7.51
  },
  {
    "MOLECULE": "Cc1cc(Oc2ccc(S(=O)(=O)N(Cc3ccccc3)c3ccc(C(=O)NS(=O)(=O)c4ccc(NCC5CCOCC5)c([N+](=O)[O-])c4)c(O)c3)cc2)cc(C)c1Cl",
    "OBSERVED_VALUE": 6.10
  },
  {
    "MOLECULE": "Cc1cc(Oc2ccc(S(=O)(=O)N(CC(C)C)c3ccc(C(=O)O)c(O)c3)cc2)cc(C)c1Cl [4jc117-5 13ak]",
    "OBSERVED_VALUE": 6.11
  }
]

Task: Please supply the value of reported pKi for the item Cc1cc(Oc2ccc(N(C3CCCC3)S(=O)(=O)c3cc(C(=O)O)c(O)c4ccccc34)cc2)cc(C)c1Cl
Result: 7.48

Task: Please supply the value of reported pKi for the item Cc1cc(Oc2ccc(S(=O)(=O)N3CC(C(=O)O)Cc4ccccc43)cc2)cc(C)c1Cl (racemic)
Result: 6.92

====

target: UniProt:Q07817; experiment: Fluorescence polarization competition assay, Bcl-xL; assay type: binding; details: ΔG from experimental Ki
Sequence (Q07817 whole entry): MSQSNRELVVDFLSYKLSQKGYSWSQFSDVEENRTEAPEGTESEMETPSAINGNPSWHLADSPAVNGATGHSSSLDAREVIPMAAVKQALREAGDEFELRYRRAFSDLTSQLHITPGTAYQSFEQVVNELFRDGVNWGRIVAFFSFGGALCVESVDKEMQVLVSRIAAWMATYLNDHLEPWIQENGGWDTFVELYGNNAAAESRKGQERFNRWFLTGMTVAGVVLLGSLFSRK
Could you mark each record Met if its Bcl-xL Exp ΔG falls strictly under -6 kcal/mol, and Not met if it equals or exceeds it?

Sample answers from the record:
[
  {
    "COMPOUND": "Cc1cc(Oc2ccc(NS(=O)(=O)c3cc(C(=O)O)c(O)c4ccccc34)cc2)cc(C)c1Cl [3bi; JY-5-371]",
    "ANSWER_LABEL": "Met"
  },
  {
    "COMPOUND": "O=C(O)c1cc(S(=O)(=O)Nc2ccc(Oc3cccc(Br)c3)cc2)c2ccccc2c1O [3be; SF-5-303]",
    "ANSWER_LABEL": "Met"
  },
  {
    "COMPOUND": "COc1ccc(NS(=O)(=O)c2cc(C(=O)O)c(O)c3ccccc23)cc1 [3z; MEL-3-018]",
    "ANSWER_LABEL": "Not met"
  },
  {
    "COMPOUND": "Cc1ccc(Oc2ccc(NS(=O)(=O)c3cc(C(=O)O)c(O)c4ccccc34)cc2)cc1 [3bc; SF-5-301]",
    "ANSWER_LABEL": "Met"
  },
  {
    "COMPOUND": "O=C(O)c1cc(S(=O)(=O)Nc2cccc3ccccc23)c2ccccc2c1O [3p; EW-2-056]",
    "ANSWER_LABEL": "Not met"
  }
]

Task: Hello, I'm reviewing records and need to know if Bcl-xL Exp ΔG of O=C(O)c1cc(S(=O)(=O)Nc2ccc([N+](=O)[O-])cc2)c2ccccc2c1O [3ac; MEL-3-005] is below -6 kcal/mol. Could you check?
Result: Met

Task: Hello, I'm reviewing records and need to know if Bcl-xL Exp ΔG of Cc1cc(C)cc(Oc2ccc(NS(=O)(=O)c3cc(C(=O)O)c(O)c4ccccc34)cc2)c1 [3bf; SF-5-306] is below -6 kcal/mol. Could you check?
Result: Met

Task: Hello, I'm reviewing records and need to know if Bcl-xL Exp ΔG of O=C(O)c1cc(S(=O)(=O)Nc2ccc3ccccc3c2)c2ccccc2c1O [3q; EW-2-057] is below -6 kcal/mol. Could you check?
Result: Not met
